Consider the following compounds; for each one, report its pIC50.
Remember, pIC50 is on a log scale: it is -log10 of the molar concentration.

Prompt line: Report value only: pIC50, Bromodomain-containing protein 4 (Homo sapiens, UniProt O60885), Cc1ccc(-c2ccc3c(c2)N(c2ccc(Cl)cc2)CCn2nnc(C)c2-3)cn1
Response line: 7.80

Prompt line: Report value only: pIC50, Bromodomain-containing protein 4 (Homo sapiens, UniProt O60885), Cc1nnn2c1-c1ccccc1N(c1ccc(Cl)cc1)CC2CCO (stereo not given)
Response line: 7.28

Prompt line: Report value only: pIC50, Bromodomain-containing protein 4 (Homo sapiens, UniProt O60885), Cc1nnn2c1-c1ccccc1N(Cc1cccc(Br)c1)CC2
Response line: 7.54

Prompt line: Report value only: pIC50, Bromodomain-containing protein 4 (Homo sapiens, UniProt O60885), Cc1nnn2c1-c1ccc(C(=O)NS(=O)(=O)c3ccccc3)cc1N(c1ccc(Cl)cc1)CC2
Response line: 7.68

Prompt line: Report value only: pIC50, Bromodomain-containing protein 4 (Homo sapiens, UniProt O60885), Cc1nnn2c1-c1ccc(-c3ccc(N)nc3)cc1N(c1ccc(Cl)cc1)CC2
Response line: 7.89

----------
Target: Bromodomain-containing protein 3 (Homo sapiens, UniProt Q15059)
Sequence (Q15059 whole entry): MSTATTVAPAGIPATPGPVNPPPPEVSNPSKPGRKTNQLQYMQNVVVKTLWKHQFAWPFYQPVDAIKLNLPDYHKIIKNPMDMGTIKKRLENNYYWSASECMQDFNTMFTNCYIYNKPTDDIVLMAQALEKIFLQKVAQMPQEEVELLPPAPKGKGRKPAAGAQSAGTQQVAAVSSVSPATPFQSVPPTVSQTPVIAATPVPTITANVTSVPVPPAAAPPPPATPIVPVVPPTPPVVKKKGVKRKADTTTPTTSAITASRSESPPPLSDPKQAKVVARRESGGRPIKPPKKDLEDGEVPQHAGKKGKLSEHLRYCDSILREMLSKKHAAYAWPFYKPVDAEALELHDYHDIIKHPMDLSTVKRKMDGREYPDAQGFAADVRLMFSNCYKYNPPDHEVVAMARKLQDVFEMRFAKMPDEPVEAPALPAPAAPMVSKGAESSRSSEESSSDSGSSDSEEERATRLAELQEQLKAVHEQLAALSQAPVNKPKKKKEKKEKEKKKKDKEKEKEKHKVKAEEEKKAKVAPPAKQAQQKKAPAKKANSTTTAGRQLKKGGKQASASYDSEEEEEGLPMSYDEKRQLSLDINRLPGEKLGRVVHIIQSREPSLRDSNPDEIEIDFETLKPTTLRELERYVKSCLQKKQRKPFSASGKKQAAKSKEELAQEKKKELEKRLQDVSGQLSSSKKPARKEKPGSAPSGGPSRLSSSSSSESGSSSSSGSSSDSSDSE
Assay: Inhibition of human His-tagged Brd3 bromodomain 1 expressed in Escherichia coli BL21 (DE3) preincubated for 30 mins followed by addition of biotinylated acetyl-histone H4 peptide and measured after 1 hr by AlphaScreen assay
Consider the following compounds; for each one, report its IC50.
Value expressed in µM; do not type the unit.

Prompt line: State its IC50: Cc1nnn2c1-c1ccc(Cn3cccn3)cc1N(c1ccc(Cl)cc1)CC2
Response line: 0.052

Prompt line: State its IC50: Cc1nnn2c1-c1ccc(C(=O)N[C@H](C)c3ccccc3)cc1N(c1ccc(Cl)cc1)CC2
Response line: 0.013

Prompt line: State its IC50: Cc1nnn2c1-c1ccc(C(=O)Nc3ccccc3)cc1N(c1ccc(Cl)cc1)CC2
Response line: 0.014

Prompt line: State its IC50: Cc1nnn2c1-c1ccc(-c3ccc(N)nc3)cc1N(c1ccc(Cl)cc1)CC2
Response line: 0.009

Prompt line: State its IC50: Cc1nnn2c1-c1ccc(C(=O)NC(c3ccccc3)c3ccccc3)cc1N(c1ccc(Cl)cc1)CC2
Response line: 0.039

Prompt line: State its IC50: Cc1nnn2c1-c1ccc(C(=O)NS(=O)(=O)c3ccccc3)cc1N(c1ccc(Cl)cc1)CC2
Response line: 0.021

Prompt line: State its IC50: Cc1ccc(-c2ccc3c(c2)N(c2ccc(Cl)cc2)CCn2nnc(C)c2-3)cn1
Response line: 0.01

Prompt line: State its IC50: Cc1nnn2c1-c1ccc(C(=O)N[C@@H](C)c3ccccc3)cc1N(c1ccc(Cl)cc1)CC2
Response line: 0.012

Prompt line: State its IC50: Cc1nnn2c1-c1ccccc1N(c1ccc(Cl)cc1)CC2CCO (centres undefined)
Response line: 0.044

Prompt line: State its IC50: Cc1nnn2c1-c1ccc(-c3cc[nH]n3)cc1N(c1ccc(Cl)cc1)CC2
Response line: 0.01

Prompt line: State its IC50: Cc1nnn2c1-c1ccc(C(=O)N[C@@H](C)c3ccc(F)cc3)cc1N(c1ccc(Cl)cc1)CC2
Response line: 0.023

Prompt line: State its IC50: Cc1nnn2c1-c1ccc(C(=O)O)cc1N(c1ccc(Cl)cc1)CC2
Response line: 0.016

Prompt line: State its IC50: Cc1nnn2c1-c1ccccc1N(Cc1cccc(Br)c1)CC2
Response line: 0.021
